# Test system: Serratia marcescens expressing IMP-1 (CL5741)
# Format: cell-based
# experimental.parameters: with imipenem 1 μg/ml; 95% inhibition of bacterial growth
# Description: The bacterial strains tested included the clinical strains Escherichia coil expressing NDM-1 (CLB30005, CLB30016), Serratia marcescens expressing IMP-1 (CL5741), and Klebsiella pneumoniae expressing VIM-1 (H-LMA599644). Inhibitor activity was measured in the presence and absence of imipenem in a 384-well microplate. The clinical strains CLB30016, CL5741 and IHMA599644 were grown on trypticase soy agar containing 5% sheep's blood. […]
Please provide measured CL5741 S. marcescens MITC95 IMP for the entries that follow.
# number only, unit µM dropped from output

Need CL5741 S. marcescens MITC95 IMP of NS(=O)(=O)c1c(S(=O)(=O)N[C@@H]2CCNC2)ccc(N2CCCN(CCO)CC2)c1-c1nnn[nH]1 [Example 69] , thanks.
3.13

Report CL5741 S. marcescens MITC95 IMP for NC[C@@H](O)CNS(=O)(=O)c1ccc(N2CCC[C@H](CN)C2)c(-c2nnn[nH]2)c1S(N)(=O)=O [Example 39] please.
0.78

Need CL5741 S. marcescens MITC95 IMP of NC[C@@H](O)CNS(=O)(=O)c1ccc(N2CCC(C(N)=O)C2)c(-c2nn[nH]n2)c1S(N)(=O)=O (stereo partly shown) [Example 118] , thanks.
1.56

What does the data say about its CL5741 S. marcescens MITC95 IMP? Entry: NCC=C1CCCN(c2ccc(S(=O)(=O)NC[C@H](O)CN)c(S(N)(=O)=O)c2-c2nn[nH]n2)C1 (single isomer, unassigned; isomer a) [Example 205]
1.56

GET /values?readout=CL5741 S. marcescens MITC95 IMP&item= NC[C@@H]1CCN(c2ccc(S(=O)(=O)N[C@@H]3CCNC3)c(S(N)(=O)=O)c2-c2nn[nH]n2)C[C@@H]1F (racemic) [Example 7]
0.39

Give its CL5741 S. marcescens MITC95 IMP value. Item: NCC1CCN(c2ccc(S(=O)(=O)N[C@@H](CN)CO)c(S(N)(=O)=O)c2-c2nn[nH]n2)CC1 [Example 189]
0.78

Returns the measured CL5741 S. marcescens MITC95 IMP for the input molecule. Input: NC[C@@H](O)CNS(=O)(=O)c1ccc(N2CCC3(CC2)CNC(N)=N3)c(-c2nn[nH]n2)c1S(N)(=O)=O [Example 171]
0.78

---

Please provide measured IC50 for the entries that follow.
Number only, in nM; omit the unit.

Item NS(=O)(=O)c1c(S(=O)(=O)N[C@@H]2CCNC2)ccc(NCC2CCNCC2)c1-c1nn[nH]n1 with IMP-1 (Serratia marcescens) - IC50?
12.4

IMP-1 (Serratia marcescens) / IC50 / NC[C@@H]1CCCN(c2ccc(S(=O)(=O)N[C@@H]3CCNC3)c(S(N)(=O)=O)c2-c2nnn[nH]2)C1 : value?
35.4

What measured IC50 is associated with NS(=O)(=O)c1c(S(=O)(=O)N[C@@H]2CCNC2)ccc(N2CCC3(CC2)CNC3)c1-c1nnn[nH]1 on IMP-1 (Serratia marcescens)?
3.06

Notebook entry, IMP-1 (Serratia marcescens) assay: IC50 of NCCC(=O)N1CCN(c2ccc(S(=O)(=O)NC[C@H](O)CN)c(S(N)(=O)=O)c2-c2nn[nH]n2)CC1 = ?
4.7

API: value(readout=IC50, system=IMP-1 (Serratia marcescens)) for record NS(=O)(=O)c1c(S(=O)(=O)N[C@@H]2CCNC2)ccc(N2CCOC(CCO)C2)c1-c1nnn[nH]1 (stereo partly shown)
1.16

# returns recorded IC50 (system: IMP-1 (Serratia marcescens)) for NS(=O)(=O)c1c(S(=O)(=O)N[C@@H]2CCNC2)ccc(N2CCC(CO)CC2=O)c1-c1nn[nH]n1 (stereo partly shown)
# Sequence (P52699 whole entry, looked up, species assumed): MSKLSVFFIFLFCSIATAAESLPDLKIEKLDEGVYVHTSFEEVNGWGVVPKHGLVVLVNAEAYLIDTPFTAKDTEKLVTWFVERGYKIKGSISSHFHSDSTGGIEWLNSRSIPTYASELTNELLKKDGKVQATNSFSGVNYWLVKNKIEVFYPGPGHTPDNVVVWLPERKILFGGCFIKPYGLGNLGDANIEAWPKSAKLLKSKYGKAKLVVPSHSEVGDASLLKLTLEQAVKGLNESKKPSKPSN
6.9

Kindly state the measured IC50 obtained for NC[C@@H](O)CNS(=O)(=O)c1ccc(N2C[C@@H]3[C@@H](CN)[C@@H]3C2)c(-c2nn[nH]n2)c1S(N)(=O)=O with IMP-1 (Serratia marcescens).
35.5

---

# System: P. aeruginosa MB9798 (efflux+, IMP-1 plasmid)
# experimental.parameters: efflux + (MB9798) strain; imipenem at 2 μg/mL; in the presence of a class A, C, D serine β-lactamase inhibitor closely related to relebactam
endpoint.name: MB9798 MITC95 P. aeruginosa uM Efflux WT (µM)
Field format: number, assumed µM, no unit text.

MB9798 MITC95 P. aeruginosa uM Efflux WT lookup needed for NCCN1CCN(c2ccc(S(=O)(=O)N[C@@H]3CCNC3)c(S(N)(=O)=O)c2-c2nnn[nH]2)CC1 , thanks.
1.56

Requested read-out: MB9798 MITC95 P. aeruginosa uM Efflux WT. Entry: NC[C@@H](O)CNS(=O)(=O)c1ccc(N2CC[C@H](CN)[C@H](O)C2)c(-c2nn[nH]n2)c1S(N)(=O)=O
1.56

MB9798 MITC95 P. aeruginosa uM Efflux WT lookup needed for NS(=O)(=O)c1c(S(=O)(=O)N[C@@H]2CCNC2)ccc(N2CC(N3CCOCC3)C2)c1-c1nnn[nH]1 , thanks.
12.50

Fill blank: measured MB9798 MITC95 P. aeruginosa uM Efflux WT of the molecule CC(=O)N[C@H]1CCN(c2ccc(S(=O)(=O)N[C@@H]3CCNC3)c(S(N)(=O)=O)c2-c2nnn[nH]2)C1 is ____.
12.50

Give its MB9798 MITC95 P. aeruginosa uM Efflux WT value. Item: CN(C)C1(C)CN(c2ccc(S(=O)(=O)N[C@@H]3CCNC3)c(S(N)(=O)=O)c2-c2nnn[nH]2)C1
12.50

Requested read-out: MB9798 MITC95 P. aeruginosa uM Efflux WT. Entry: NS(=O)(=O)c1c(S(=O)(=O)C2CNC2)ccc(N2CCC(O)CC2)c1-c1nnn[nH]1
6.25

Need MB9798 MITC95 P. aeruginosa uM Efflux WT, item NCCS(=O)(=O)c1ccc(N2CCOCC2)c(-c2nnn[nH]2)c1S(N)(=O)=O
12.50

---

# target.desc: VIM-2 (Escherichia coli, UniProt Q5U7L7)
# assay.remarks: biochemical
# experimental.parameters: CCF2-FA fluorescence assay; read-out: VIM2 IC50
endpoint.name: pIC50
Kindly note that pIC50 refers to -log10 of the concentration in mol/L and answer with the value alone.

Please give the measured pIC50 for this compound: NS(=O)(=O)c1c(S(=O)(=O)N[C@@H]2CCNC2)ccc(N2CCC(CO)CC2=O)c1-c1nn[nH]n1 (stereo partly shown)
8.73

# pIC50 lookup, item NC[C@H]1CCCN(c2ccc(S(=O)(=O)N[C@@H]3CCNC3)c(S(N)(=O)=O)c2-c2nnn[nH]2)C1
8.03

Request the reported pIC50 associated with NC[C@@H](O)CNS(=O)(=O)c1ccc(N2CC[C@H](CN)C2)c(-c2nn[nH]n2)c1S(N)(=O)=O
7.43

Please report the recorded pIC50 for NS(=O)(=O)c1c(S(=O)(=O)N[C@@H]2CCNC2)ccc(N2CC3(CCNCC3)C2)c1-c1nnn[nH]1 .
6.93

Record request: pIC50 value, item NCC1=CCN(c2ccc(S(=O)(=O)NC[C@H](O)CN)c(S(N)(=O)=O)c2-c2nn[nH]n2)CC1
8.38

I'd like to know its pIC50. The compound in question is NC[C@@H](O)CNS(=O)(=O)c1ccc(N2CCC(C3COC(=O)N3)CC2)c(-c2nn[nH]n2)c1S(N)(=O)=O (stereo partly shown)
9.18

Consider the compound shown here: NC[C@@H](O)CNS(=O)(=O)c1ccc(N2CCC(NCCO)CC2)c(-c2nn[nH]n2)c1S(N)(=O)=O [Example 142, bis(2,2,2-trifluoroacetate)] What is its recorded pIC50?
8.03

---

Parameter 'readout' = IC50; parameter 'system' = IMP-1 (Serratia marcescens).
Entry rule: numbers only, all in nM.

# input compound: NS(=O)(=O)c1c(S(=O)(=O)N[C@@H]2CCNC2)ccc(N2CCC(CF)CC2)c1-c1nnn[nH]1 [Example 89] ; wanted: its IC50
0.61

# lookup: IC50 of NC[C@@H](O)CNS(=O)(=O)c1ccc(N2CCC3(CC2)CNC(=O)OC3)c(-c2nn[nH]n2)c1S(N)(=O)=O [Example 26]
1.02

State the recorded IC50 for this entry: NC[C@@H](O)CNS(=O)(=O)c1ccc(N[C@@H]2CCC[C@H]2N)c(-c2nn[nH]n2)c1S(N)(=O)=O [Example 179]
69.2

Which IC50 is listed for NS(=O)(=O)c1c(S(=O)(=O)N[C@@H]2CCNC2)ccc(N2CCC(CCO)C2)c1-c1nnn[nH]1 (stereo partly shown) [Example 81] ?
0.62

Fill blank: measured IC50 of the compound N[C@H]1CCN(c2ccc(S(=O)(=O)N[C@@H]3CCNC3)c(S(N)(=O)=O)c2-c2nn[nH]n2)C[C@H]1F [Example 199] is ____.
6.11

Which IC50 value is on record for NC[C@@H](O)CNS(=O)(=O)c1ccc(N2CCC(n3ccnc3)CC2)c(-c2nnn[nH]2)c1S(N)(=O)=O [Example 174] ?
0.36

// query IC50 value for entry CC1(C)CN(c2ccc(S(=O)(=O)NC[C@H](O)CN)c(S(N)(=O)=O)c2-c2nn[nH]n2)CCN1CCO [Example 173]
10.5
